- Tested on: Erysiphe graminis f. sp. tritici
- test method notes: Test A: wheat powdery mildew, preventive spray on wheat seedlings, visual disease rating
- Assay type: in vivo
- condition summary: 40 ppm (*), 100 = 100% disease control
Marks after values point to notes of the source that are not given here.
Please provide measured Test A disease control rating for the entries that follow.

## Input Hello, please tell me recorded Test A disease control rating for this one: COC(=O)NCc1cc(-n2ccc(-c3ccc(Br)cc3Cl)n2)ccc1C
## Output 100* %

## Input Hello, please tell me recorded Test A disease control rating for this one: COC(=O)NCc1cc(-c2ccn(-c3ccc(Cl)cc3C#N)n2)ccc1C
## Output 97* %

## Input Hello, please tell me recorded Test A disease control rating for this one: C=Cc1ccc(-c2ccn(-c3ccc(C)c(CNC(=O)OC)c3)n2)c(C)c1
## Output 40* %

## Input Hello, please tell me recorded Test A disease control rating for this one: COC(=O)NCc1cc(-n2ncc(-c3ccc(OC)cc3OCC#N)n2)ccc1C
## Output 99* %

## Input Hello, please tell me recorded Test A disease control rating for this one: C#Cc1ccc(-c2ccn(-c3ccc(C)c(CNC(=O)OC)c3)n2)c(C)c1
## Output 100* %

## Input Hello, please tell me recorded Test A disease control rating for this one: CCOc1ccc(-c2ccn(-c3ccc(C)c(CNC(=O)OC)c3)n2)c(C)n1
## Output 99* %

## Input Hello, please tell me recorded Test A disease control rating for this one: COC(=O)NCc1cc(-n2ncc(-c3ccc(F)cc3F)n2)ccc1C
## Output 100* %

## Input Hello, please tell me recorded Test A disease control rating for this one: C#Cc1ccc(-c2cnn(-c3ccc(C)c(CNC(=O)OC)c3)n2)c(OC)c1
## Output 99* %

## Input Hello, please tell me recorded Test A disease control rating for this one: COC(=O)NCc1cc(-n2ccc(-c3ccc(Cl)cc3C)n2)ccc1C
## Output 100* %

## Input Hello, please tell me recorded Test A disease control rating for this one: COC(=O)NCc1cc(-n2ccc(-c3ccc(C)nc3OC)n2)ccc1C
## Output 99* %

## Input Hello, please tell me recorded Test A disease control rating for this one: COC(=O)NCc1cc(-n2ccc(-c3ccc(C(F)(F)F)cc3OC)n2)ccc1C
## Output 99* %

## Input Hello, please tell me recorded Test A disease control rating for this one: CCOc1cc(OC)ccc1-c1cnn(-c2ccc(C)c(CNC(=O)OC)c2)n1
## Output 100* %

## Input Hello, please tell me recorded Test A disease control rating for this one: COC(=O)NCc1cc(-n2ncc(-c3ccc(OC)cc3[N+](=O)[O-])n2)ccc1C
## Output 99* %

## Input Hello, please tell me recorded Test A disease control rating for this one: COC(=O)NCc1cc(-c2ccn(-c3ccc(Br)cc3Br)n2)ccc1C
## Output 100* %

## Input Hello, please tell me recorded Test A disease control rating for this one: COC(=O)NCc1cc(-n2ncc(-c3ccc(I)cc3OC)n2)ccc1C
## Output 98* %

## Input Hello, please tell me recorded Test A disease control rating for this one: COC(=O)NCc1cc(-n2ccc(-c3ccc([N+](=O)[O-])cc3Cl)n2)ccc1C
## Output 72* %

## Input Hello, please tell me recorded Test A disease control rating for this one: C#CCOc1cc(OC)ccc1-c1cnn(-c2ccc(C)c(CNC(=O)OC)c2)n1
## Output 98* %

## Input Hello, please tell me recorded Test A disease control rating for this one: COC(=O)NCc1cc(-n2ccc(-c3ccc(C)cc3Br)n2)ccc1C
## Output 100* %

## Input Hello, please tell me recorded Test A disease control rating for this one: COC(=O)NCc1cc(-n2ccc(-c3ccc(C(C)=O)cc3C)n2)ccc1C
## Output 91* %

## Input Hello, please tell me recorded Test A disease control rating for this one: CCOc1ccc(-c2ccn(-c3ccc(C)c(CNC(=O)OC)c3)n2)c(Cl)c1
## Output 100* %

## Input Hello, please tell me recorded Test A disease control rating for this one: C#CCOc1ccc(-c2cnn(-c3ccc(C)c(CNC(=O)OC)c3)n2)c(C)c1
## Output 99* %

## Input Hello, please tell me recorded Test A disease control rating for this one: COC(=O)NCc1cc(-c2ccn(-c3ccc(Cl)cc3F)n2)ccc1C
## Output 100* %

## Input Hello, please tell me recorded Test A disease control rating for this one: COC(=O)NCc1cc(-n2ccc(-c3ccc(Br)cc3Br)n2)ccc1C
## Output 99* %

## Input Hello, please tell me recorded Test A disease control rating for this one: COC(=O)NCc1cc(-n2ncc(-c3ccc(C)cc3C)n2)ccc1C
## Output 99* %

## Input Hello, please tell me recorded Test A disease control rating for this one: COC(=O)NCc1cc(-c2ccn(-c3ccc(Br)cc3Cl)n2)ccc1C
## Output 100* %

## Input Hello, please tell me recorded Test A disease control rating for this one: COC(=O)NCc1cc(-n2ncc(-c3ccc(OC)cc3C(F)(F)F)n2)ccc1C
## Output 98* %

## Input Hello, please tell me recorded Test A disease control rating for this one: COC(=O)NCc1cc(-n2ncc(-c3ccc(F)cc3Cl)n2)ccc1C
## Output 98* %

## Input Hello, please tell me recorded Test A disease control rating for this one: CCOc1ccc(-c2ccn(-c3ccc(C)c(CNC(=O)OC)c3)n2)c(F)c1
## Output 100* %

Value source: patent US20150266850A1
